// data source = the supplement of paper PMC6470124

ASSAY_INFO: absolute recovery over vacuum-assisted evaporative concentration; higher = better recovery
CONDITION_LABEL: wastewater influent; enrichment method: VEC
PROPERTY_MEASURED: absolute recovery (%)
Answers are plain numbers, in %.

Here are 4 molecules together with their reported answers.
>  <MOLECULE>
C#CC[NH2+]C(C)Cc1ccccc1 (stereo not given)

>  <absolute recovery (%)>
11.4

$$$$
>  <MOLECULE>
CCc1cccc(CC)c1N(COC)C(=O)CS(=O)(=O)[O-]

>  <absolute recovery (%)>
106

$$$$
>  <MOLECULE>
CC(=NC#N)N(C)Cc1ccc(Cl)nc1

>  <absolute recovery (%)>
90.8

$$$$
>  <MOLECULE>
Clc1cccc(N2CC[NH2+]CC2)c1

>  <absolute recovery (%)>
99.6

$$$$

Lab note: next molecule to report on.
q: Item under review: COc1cc(C)c(C(=O)c2c(OC)ccc(Br)c2C)c(OC)c1OC . Reported absolute recovery?
a: 101
